tested on: MDA-MB-468 breast; experiment: NCI-60 one-dose screen, 48 h (100 = growth as untreated, 0 = no growth, -100 = all killed); conditions: 10 µM unless noted
About 83,000 compounds went through this panel and 20% of them were active in at least one assay; those are over-represented in the sample as a whole.
growth less than 90% is fulfilled; growth greater than or equal to 90% is not fulfilled.

Example results:
Query: API: query returns whether the molecule falls strictly under 90% in growth. Query: "O=C1/C(=C/c2ccccc2)CN(C(=O)CCN2CCC(=NO)CC2)C/C1=C\c1ccccc1"
Response: fulfilled

Query: API: query returns whether the molecule falls strictly under 90% in growth. Query: "O=C(O)COc1ccc([N+](=O)[O-])cc1Cl"
Response: not fulfilled

Query: API: query returns whether the molecule falls strictly under 90% in growth. Query: "CC[C@H](CC[C@@H](C)[C@H]1CC[C@H]2[C@@H]3/C(=C/c4cccnc4)C(=O)C4=CC(=O)CC[C@]4(C)[C@H]3CC[C@]12C)C(C)C"
Response: not fulfilled

# evaluate next
Query: API: query returns whether the molecule falls strictly under 90% in growth. Query: "CCCSc1ccc2nc(NC(=O)OC)[nH]c2c1"
Response: fulfilled

Origin of the recorded values: PubChem BioAssay (NCI)
